Field: Ki. Provide a value for each of the compounds that follow.
# target_system: Central α2-receptor
# procedure_text: Binding study, rat cerebral cortex, [3H]-rauwolscine
# test_context: rat cerebral cortex, [3H]-rauwolscine
Give bare numbers, in nM.

Example cases with answers are listed next.
CN[C@@H]1CCc2c(ccc(O)c2O)C1 : 1600
CNC1CCc2c(ccc(O)c2O)C1 (racemic) [CHF 1024, (±)-5,6-dihydroxy-2-methylaminotetralin, reference compound] : 260

Now, please, on to the next compound.
Could you tell me which Ki is on file for "CN[C@H]1CCc2c(ccc(O)c2O)C1" ?
130
